# System: Influenza A virus
# measurement.description: Antiviral activity against Influenza A virus A/WSN/33(H1N1) infected in MDCK cells assessed as inhibition of viral growth pre-infected for 1 hr followed by compound addition and measured 24 hrs post infection by plaque assay
# Type: functional, organism-based
test.readout: IC50

Solved cases below.
- molecule: "O=C(O)c1ccccc1Nc1ccnc2cc(C(F)(F)F)ccc12"
  result: "6.73 µM"
- molecule: "O=C(Nc1cccc([N+](=O)[O-])c1)c1ccccc1Nc1ccnc2cc(C(F)(F)F)ccc12"
  result: "5.53 µM"
- molecule: "CCC(CC)O[C@@H]1C=C(C(=O)O)C[C@H](N)[C@H]1NC(C)=O [OSELTAMIVIR CARBOXYLATE]"
  result: "9e-06 µM"

Query block: Lab request: please report IC50 under test system Influenza A virus for O=C(NCCCN1CCOCC1)c1ccccc1Nc1ccnc2ccc(Cl)cc12
Result block: 3.21 µM

* * *

# measurement.description: Selectivity index, ratio of CC50 for cytotoxicity against MDCK cells assessed as reduction in cell viability to IC50 for antiviral activity against Influenza A virus A/WSN/33(H1N1) infected in MDCK cells assessed as inhibition of viral growth
# Assay type: toxicity, cell-based
# test.settings: dog, read-out: Ratio CC50/IC50
test.readout: selectivity ratio

Solved cases below.
- test.smiles: "O=C(O)c1ccccc1Nc1ccnc2cc(C(F)(F)F)ccc12"
  selectivity ratio: "> 15"
- test.smiles: "O=C(NCCCN1CCOCC1)c1ccccc1Nc1ccnc2ccc(Cl)cc12"
  selectivity ratio: "> 16"

Turning to the following compound.
Query block: Recorded selectivity ratio of O=C(Nc1cccc([N+](=O)[O-])c1)c1ccccc1Nc1ccnc2cc(C(F)(F)F)ccc12 , please.
Result block: > 18

* * *

Consider the following Kd values measured on Polymerase acidic protein (Influenza A virus (A/Puerto Rico/8/1934(H1N1))).
Answer with a number only, understood to be in µM.

- test.smiles: "O=C(O)c1ccccc1Nc1ccnc2cc(C(F)(F)F)ccc12"
  Kd / µM: 8.36

Turning to the following molecule.
Query block: Lab request: please report Kd under test system Polymerase acidic protein (Influenza A virus (A/Puerto Rico/8/1934(H1N1))) for O=C(NCCCN1CCOCC1)c1ccccc1Nc1ccnc2ccc(Cl)cc12
Result block: 28.8

* * *

# pIC50 listing for each entry below
# Tested on: Influenza A virus
# measurement.description: Antiviral activity against Influenza A virus A/PR/8/34 infected in MDCK cells MOI 0.01 assessed as inhibition of viral growth pre-infected for 1 hr followed by compound addition and measured 24 hrs post infection by plaque assay
# Format: functional, organism-based
# test.settings: A/PR/8/34, MDCK
// pIC50 here means minus log10 of the molar concentration (mol/L)

Query block: Recorded pIC50 of O=C(NCCCN1CCOCC1)c1ccccc1Nc1ccnc2ccc(Cl)cc12 , please.
Result block: 5.40

Query block: Thanks! And O=C(O)c1ccccc1Nc1ccnc2cc(C(F)(F)F)ccc12 ?
Result block: 4.95

Query block: Thanks! And O=C(Nc1cccc([N+](=O)[O-])c1)c1ccccc1Nc1ccnc2cc(C(F)(F)F)ccc12 ?
Result block: 5.26

* * *

# measurement.description: Selectivity index, ratio of CC50 for cytotoxicity against MDCK cells assessed as reduction in cell viability to IC50 for antiviral activity against Influenza A virus A/PR/8/34 infected in MDCK cells MOI 0.01 assessed as inhibition of viral growth
# Format: toxicity, cell-based
# test.settings: dog, read-out: Ratio CC50/IC50
# selectivity ratio listing for each entry below

Solved cases below.
- test.smiles: "O=C(NCCCN1CCOCC1)c1ccccc1Nc1ccnc2ccc(Cl)cc12"
  selectivity ratio: "> 13"
- test.smiles: "O=C(Nc1cccc([N+](=O)[O-])c1)c1ccccc1Nc1ccnc2cc(C(F)(F)F)ccc12"
  selectivity ratio: "> 18"

Query block: Recorded selectivity ratio of O=C(O)c1ccccc1Nc1ccnc2cc(C(F)(F)F)ccc12 , please.
Result block: > 9
